All values here come from ChEMBL document CHEMBL1142416.

- Test system: LNCaP
- Measurement Protocol: Inhibition of androgen receptor protein expression in human LNCaP cells after 72 hrs by Western blotting
- Format: functional, cell-based
Assay Metric: Activity

CCOc1cc(/C=C2\SC(=O)NC2=O)ccc1OCC1(C)CCCCC1: Dose-dependent effect
CC1(CN2C(=O)SC(Cc3ccc(O)c(C(F)(F)F)c3)C2=O)CCCCC1 (centres undefined): Dose-dependent effect
CC1(COc2cccc(/C=C3\SC(=O)NC3=O)c2)CCCCC1: Dose-dependent effect
CC1(CN2C(=O)S/C(=C\c3ccc(O)cc3)C2=O)CCCCC1: Dose-dependent effect

* * *

- System: LNCaP
- Measurement Protocol: Antitumor activity against androgen responsive human LNCaP cells by MTT assay at 72 hrs
- Assay type: functional, cell-based
Assay Metric: IC50 (µM)
Your answer is read as µM, so omit the unit and give the number.

Fill in: LNCaP IC50 for CC1(CN2C(=O)S/C(=C\c3ccc(O)c(C(F)(F)F)c3)C2=O)CCCCC1 = 3
